target: Patr-A*03∶01 (Pan troglodytes, UniProt P13748); construct: expressed in transfected cells; host or cells: K562 or 721.221 cells; test: cell-based peptide-binding-competition-assay, Patr-A*03∶01; design: species or system chimpanzee (Pan troglodytes); conditions: competition with 500nM biotinylated indicator peptide […]; transfected K562 or 721.221 cells; overnight; europium-streptavidin DELFIA; two individual experiments
Where no end group is shown, it is not given here.
parameter measured: IC50 (µM)
// return numeric value only (unit: µM, not printed)

Request: // IC50 lookup, key: KGGLRPRAG [reference compound]
Result: 8.2
